species: Mus musculus; assay: Maximum reduction in blood glucose levels in KKA mice at a dosage of 0.005% in diet; format: functional
# label = 1.0 if Reduction < 40% else 0.0

compound	answer-label
Cc1oc(CCOc2ccc(CC3SC(=O)NC3=O)cc2)nc1-c1ccccc1 (stereo not drawn)	0.0
CCc1oc(CCOc2ccc(CC3SC(=O)NC3=O)cc2)nc1-c1ccccc1 (stereo not drawn)	0.0
O=C1NC(=O)C(Cc2ccc(OCc3csc(-c4cccnc4)n3)cc2)S1 (stereo not drawn)	1.0
Cc1nc(CCOc2ccc(CC3SC(=O)NC3=O)cc2)co1 (stereo not drawn)	1.0
CCCc1nc(CCOc2ccc(CC3SC(=O)NC3=O)cc2)co1 (stereo not drawn)	0.0
Cc1nc(C(O)COc2ccc(/C=C3\SC(=O)NC3=O)cc2)c(C)o1 (stereo not drawn)	0.0
Cc1oc(C2CCCCC2)nc1CCOc1ccc(CC2SC(=O)NC2=O)cc1 (stereo not drawn)	0.0
Cc1oc(-c2ccccc2)nc1COc1ccc(/C=C2\SC(=O)NC2=O)cc1	1.0
Cc1nc(CCOc2ccc(CC3SC(=O)NC3=O)cc2)oc1-c1ccccc1 (stereo not drawn)	1.0
Cc1nc(CCOc2ccc(CC3SC(=O)NC3=O)cc2)cs1 (stereo not drawn)	0.0
Cc1oc(-c2ccccc2)nc1C(=O)COc1ccc(/C=C2\SC(=O)NC2=O)cc1	0.0
CCc1oc(-c2ccccc2)nc1CCOc1ccc(/C=C2\SC(=O)NC2=O)cc1	0.0
O=C1NC(=O)C(Cc2ccc(OCc3nc4ccccc4s3)cc2)S1 (stereo not drawn)	0.0
Cc1oc(-c2ccco2)nc1COc1ccc(CC2SC(=O)NC2=O)cc1 (stereo not drawn)	0.0
Cc1oc(-c2ccccc2)nc1C(=O)COc1ccc(CC2SC(=O)NC2=O)cc1 (stereo not drawn)	0.0
Cc1oc(-c2ccccc2)nc1CCCOc1ccc(CC2SC(=O)NC2=O)cc1 (stereo not drawn)	1.0
O=C1NC(=O)C(Cc2ccc(OCc3coc(-c4ccccc4)n3)cc2)S1 (stereo not drawn)	0.0
Cc1oc(-c2cccs2)nc1CCOc1ccc(CC2SC(=O)NC2=O)cc1 (stereo not drawn)	0.0
